- tested-target: hSTING (Homo sapiens, UniProt Q86WV6, G230A/H232R/R293Q/R71H)
- Construct: host or cells: THP1-Dual KO-IFNAR2 cells
- Sequence (Q86WV6 whole entry R71H/G230A/H232R/R293Q): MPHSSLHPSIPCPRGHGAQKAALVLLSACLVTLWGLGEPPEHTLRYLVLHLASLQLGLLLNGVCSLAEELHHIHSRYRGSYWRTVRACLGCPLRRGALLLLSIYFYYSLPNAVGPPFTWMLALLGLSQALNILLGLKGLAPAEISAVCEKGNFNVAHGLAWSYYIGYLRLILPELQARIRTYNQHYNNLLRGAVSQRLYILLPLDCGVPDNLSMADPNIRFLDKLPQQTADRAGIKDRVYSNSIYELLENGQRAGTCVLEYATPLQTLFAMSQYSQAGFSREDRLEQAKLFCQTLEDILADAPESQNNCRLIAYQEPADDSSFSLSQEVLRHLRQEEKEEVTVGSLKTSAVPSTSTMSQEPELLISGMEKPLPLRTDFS
- test-details: STING reporter assay (luciferase) in THP1-Dual KO-IFNAR2 cells stimulated with 2′3′cGAMP
- Type: cell-based
- condition-info: 15 μM 2′3′cGAMP, 24 h, class symbols
value-kind: EC50

> print(dat)
                                   molecule  observed.measurement
1  Cc1ccc2[nH]cc(NC(=O)C(=O)Nc3cnc(N4CCC(F)(F)CC4)c(Cl)c3)c2n1 [Compound 195]             1 to 5 µM
2  O=C(NCc1cccc(C(F)(F)F)c1F)C(=O)Nc1c[nH]c2ccncc12 [Compound 170]             1 to 5 µM
3  Cc1c(CNC(=O)C(=O)Nc2c[nH]c3ccncc23)cccc1C(F)(F)F [Compound 142]           0.2 to 1 µM

Now turn to the next molecule.
# get_value(readout= EC50, system= hSTING (Homo sapiens, UniProt Q86WV6, G230A/H232R/R293Q/R71H)) for O=C(NCC12CC3CC(CC(C3)C1)C2)C(=O)Nc1c[nH]c2ncc(F)cc12 [Compound 105]
5 to 100 µM

These measurements were taken from patent US20230002373A1.
